# credit: patent US9493444B2

Catalogue of pIC50 values
Tested on: Wnt pathway (TCF-dependent transcription in HEK293 luciferase reporter cell line with ER-DSH construct)
ASSAY_COMMENT: Cellular assay for Wnt pathway activity (luciferase reporter)
Type: cell-based
CONDITION_DESCRIPTION: Homo sapiens; Wnt pathway inhibition, HEK293 luciferase reporter cells (ER-DSH, TCF promoter), 24 hours incubation, estrogen-induced
pIC50: −log10 of the molar value.

{"CPD_SMILES": "O=C1[C@@H]2CC[C@@H](C2)N1CCCc1cncc(Oc2ccc(F)cc2)n1", "pIC50": "6.00 to 6.70"}
{"CPD_SMILES": "CC(=O)N(C)CCN(C)c1cncc(OC2Cc3ccccc3C2)n1", "pIC50": "6.00 to 6.70"}
{"CPD_SMILES": "CC(=O)N(C)CCN(C)c1cncc(Oc2ccc(-c3cccc(N4CCN(C)CC4)n3)cc2F)n1", "pIC50": "> 6.70"}
{"CPD_SMILES": "CCN(CCSc1cncc(Oc2ccc(-c3ccc(C)cn3)cc2)n1)C(C)=O", "pIC50": "> 6.70"}

###

Catalogue of IC50 values
Test system: Wnt pathway (TCF-dependent transcription in HEK293 luciferase reporter cell line with ER-DSH construct)
ASSAY_COMMENT: Cellular assay for Wnt pathway activity (luciferase reporter)
Type: cell-based
CONDITION_DESCRIPTION: Homo sapiens; Wnt pathway inhibition, HEK293 luciferase reporter cells (ER-DSH, TCF promoter), 24 hours incubation, estrogen-induced

{"COMPOUND": "CC(=O)N(C)CCN(C)c1cncc(Oc2ccc(-c3cc(C(F)(F)F)ccn3)cc2)n1 [Compound 128]", "IC50": "1000 to 10000 nM"}
{"COMPOUND": "CC(=O)N(C)CCN(C)c1cncc(Oc2ccc(-c3ccc(C)cn3)cc2F)n1 [Compound 229]", "IC50": "< 200 nM"}
{"COMPOUND": "CC(=O)N(C)CCN(C)c1cncc(Oc2ccc(Br)cc2)n1 [Compound 37]", "IC50": "< 200 nM"}
{"COMPOUND": "CC(=O)Nc1ccc(-c2ccc(Oc3cncc(NCCN(C)C(C)=O)n3)c(F)c2)cn1 [Compound 258]", "IC50": "200 to 1000 nM"}
{"COMPOUND": "CC(=O)N(C)CCN(C)c1cncc(Oc2ccc(S(N)(=O)=O)cc2)n1 [Compound 101]", "IC50": "200 to 1000 nM"}

###

Test system: Wnt pathway (TCF-dependent transcription in HEK293 luciferase reporter cell line with ER-DSH construct)
ASSAY_COMMENT: Cellular assay for Wnt pathway activity (luciferase reporter)
Format: cell-based
CONDITION_DESCRIPTION: Homo sapiens; Wnt pathway inhibition, HEK293 luciferase reporter cells (ER-DSH, TCF promoter), 24 hours incubation, estrogen-induced
pIC50: −log10 of the molar value.
ENDPOINT_NAME: pIC50

{"CPD_SMILES": "COc1ccc(-c2ccc(Oc3cncc(N(C)CCN(C)C(C)=O)n3)cc2)cn1", "ENDPOINT_RESULT": "> 6.70"}
{"CPD_SMILES": "CC(=O)N(C)CCN(C)c1cncc(Oc2ccc(-n3ccnc3)cc2)n1", "ENDPOINT_RESULT": "> 6.70"}
{"CPD_SMILES": "CC(=O)N(C)CCN(C)c1cncc(Oc2ccc(-c3cc(C(N)=O)ccn3)cc2)n1", "ENDPOINT_RESULT": "6.00 to 6.70"}
{"CPD_SMILES": "CC(=O)N(C)CCCc1cncc(Oc2ccc(-c3ccncc3C#N)cc2)c1", "ENDPOINT_RESULT": "> 6.70"}
{"CPD_SMILES": "CC(=O)N(C)CCN(C)c1cncc(Oc2ccc(Cl)cc2F)n1", "ENDPOINT_RESULT": "6.00 to 6.70"}
{"CPD_SMILES": "CSc1cccc(Oc2cncc(N(C)CCN(C)C(=O)CF)n2)c1", "ENDPOINT_RESULT": "6.00 to 6.70"}
{"CPD_SMILES": "CC(=O)N(C)CCN(C)c1cncc(Oc2ccc3[nH]ccc3c2)n1", "ENDPOINT_RESULT": "6.00 to 6.70"}
{"CPD_SMILES": "COc1ccc(Oc2cncc(N(C)CCN(C)C(=O)CCC(C)C)n2)cc1", "ENDPOINT_RESULT": "5.00 to 6.00"}
{"CPD_SMILES": "CC(=O)N(C)CCN(C)c1cncc(Oc2ccc(-c3ccc(=O)[nH]n3)cc2)n1", "ENDPOINT_RESULT": "6.00 to 6.70"}
{"CPD_SMILES": "CC(=O)N(C)CCN(C)c1cncc(OCc2ccc(F)cc2)n1", "ENDPOINT_RESULT": "5.00 to 6.00"}
{"CPD_SMILES": "CC(=O)N(C)CCN(C)c1cncc(Oc2ccc(-c3ccc(C)cn3)cc2)c1", "ENDPOINT_RESULT": "6.00 to 6.70"}
{"CPD_SMILES": "CC(=O)N(C)CCN(C)c1cncc(Oc2ccc(N3CCCCC3=O)cc2)n1", "ENDPOINT_RESULT": "6.00 to 6.70"}
{"CPD_SMILES": "CSc1cccc(Oc2cncc(N(C)CCN(C)C(=O)C(F)F)n2)c1", "ENDPOINT_RESULT": "5.00 to 6.00"}
{"CPD_SMILES": "CC(=O)Nc1ccc(-c2ccc(Oc3cncc(N(C)CCN(C)C(C)=O)n3)c(F)c2)nc1", "ENDPOINT_RESULT": "> 6.70"}
{"CPD_SMILES": "CC(=O)N(C)CCN(C)c1cncc(Oc2ccc(-c3ccnc(O)c3)cc2)n1", "ENDPOINT_RESULT": "6.00 to 6.70"}
{"CPD_SMILES": "CC(=O)N(C)CCN(C)c1cncc(Oc2ccc(-c3ccnc(F)c3)cc2)n1", "ENDPOINT_RESULT": "> 6.70"}
{"CPD_SMILES": "CC(=O)N(C)CCN(C)c1cncc(Oc2ccc(-c3ccncc3)cc2)n1", "ENDPOINT_RESULT": "> 6.70"}
{"CPD_SMILES": "CC(=O)N(C)CCN(C)c1cncc(Oc2ccc(C(=O)c3ccccc3)cc2)n1", "ENDPOINT_RESULT": "6.00 to 6.70"}
{"CPD_SMILES": "Cc1ccc(-c2ccc(Oc3cncc(NCCN4CCCC4=O)n3)cc2)nc1", "ENDPOINT_RESULT": "> 6.70"}
{"CPD_SMILES": "CC(=O)N(C)CCN(C)c1cncc(Oc2ccc(Cn3nc(-c4cc(F)cc(F)c4)ccc3=O)cc2)n1", "ENDPOINT_RESULT": "5.00 to 6.00"}
{"CPD_SMILES": "CC(=O)N(C)CCCc1cncc(Oc2ccc(-c3ccncc3)cc2F)n1", "ENDPOINT_RESULT": "6.00 to 6.70"}
{"CPD_SMILES": "CC(=O)N(C)CCN(C)c1cncc(Oc2ccc(-c3cnc(N)cn3)cc2F)n1", "ENDPOINT_RESULT": "> 6.70"}
{"CPD_SMILES": "CC(=O)NCCN(C)c1cncc(Oc2ccc(F)cc2)n1", "ENDPOINT_RESULT": "5.00 to 6.00"}
{"CPD_SMILES": "CC(=O)N(C)CCNc1cncc(Oc2ccc(-c3ccncc3)cc2)n1", "ENDPOINT_RESULT": "5.00 to 6.00"}
